Data provenance: paper PMC8213153

In this section, each of the molecules is paired with its reported viability at 48 h, 100 μg/mL.
protocol-text: Cytotoxicity (MTT) assay of single and dual combinatory drugs
Type: cell-based
condition-set: human, FAVIPIRAVIR-AZITHROMYCIN series; 100 μg/mL; read-out: Cell Viability (%)
# unit: % | format: bare number

query-smiles	viability at 48 h, 100 μg/mL / %
NC(=O)c1nc(F)c[nH]c1=O	110

So, CC[C@H]1OC(=O)[C@H](C)[C@@H](O[C@H]2C[C@@](C)(OC)[C@@H](O)[C@H](C)O2)[C@H](C)[C@@H](O[C@@H]2O[C@H](C)C[C@H](N(C)C)[C@H]2O)[C@](C)(O)C[C@@H](C)CN(C)[C@H](C)[C@@H](O)[C@]1(C)O ? Its viability at 48 h, 100 μg/mL was 139

###

protocol-text: Cytotoxicity (MTT) assay of single and dual combinatory drugs
Assay type: cell-based
condition-set: human, HCQ-DOXY experiment (Fig 8); 48 hours; CompuSyn; n = 3; read-out: CC50
measurement-type: CC50 at 48 h (µg/mL)
# unit: µg/mL | format: bare number

So, CCN(CCO)CCCC(C)Nc1ccnc2cc(Cl)ccc12 (stereo not shown) [HCQ, Hydroxychloroquine] ? Its CC50 at 48 h was 1500

###

protocol-text: Cytotoxicity (MTT) assay of single and dual combinatory drugs
Format: cell-based
condition-set: human, CC50
measurement-type: CC50 at 48 h

So, NC(=O)c1nc(F)c[nH]c1=O [FAVI, Favipiravir] ? Its CC50 at 48 h was > 400 µg/mL

###

In this section, each of the molecules is paired with its reported viability at 48 h, 0.2 μg/mL.
protocol-text: Cytotoxicity (MTT) assay of single and dual combinatory drugs
Format: cell-based
condition-set: human, FAVIPIRAVIR-AZITHROMYCIN series; 0.2 μg/mL; read-out: Cell Viability (%)
Express your answer as a number followed by its unit.

molecule	viability at 48 h, 0.2 μg/mL
NC(=O)c1nc(F)c[nH]c1=O [FAVI, Favipiravir]	105%

So, CC[C@H]1OC(=O)[C@H](C)[C@@H](O[C@H]2C[C@@](C)(OC)[C@@H](O)[C@H](C)O2)[C@H](C)[C@@H](O[C@@H]2O[C@H](C)C[C@H](N(C)C)[C@H]2O)[C@](C)(O)C[C@@H](C)CN(C)[C@H](C)[C@@H](O)[C@]1(C)O [AZI, Azithromycin] ? Its viability at 48 h, 0.2 μg/mL was 115%

###

protocol-text: Cytotoxicity (MTT) assay of single and dual combinatory drugs
Format: cell-based
condition-set: human, LOPIRITO-CLARITHROMYCIN series; 2 μg/mL; read-out: Cell Viability (%)
measurement-type: viability at 48 h, 2 μg/mL

So, CC[C@H]1OC(=O)[C@H](C)[C@@H](O[C@H]2C[C@@](C)(OC)[C@@H](O)[C@H](C)O2)[C@H](C)[C@@H](O[C@@H]2O[C@H](C)C[C@H](N(C)C)[C@H]2O)[C@](C)(OC)C[C@@H](C)C(=O)[C@H](C)[C@@H](O)[C@]1(C)O [CLA, Clarithromycin] ? Its viability at 48 h, 2 μg/mL was 92.6%

###

protocol-text: Cytotoxicity (MTT) assay of single and dual combinatory drugs
Assay type: cell-based
condition-set: human, HYDROXYCHLOROQUINE-AZITHROMYCIN series; 0.2 μg/mL; read-out: Cell Viability (%)
Experimental: Each tablet containing drugs was triturated and mixed until homogenous. Approximately 50 mg equivalent mass of drugs were weighed and added to dimethyl sulfoxide in order to solubilize the drugs. […] The samples were prepared by diluting the stock solution of each drug with RPMI complete media at an appropriate level of dilution to produce a determined concentration. […] In this study, the cytotoxicity assay was evaluated for single and dual combinatory drugs during a period of 48 hours of drug incubation. […]
measurement-type: viability at 48 h, 0.2 μg/mL
Express your answer as a number followed by its unit.

So, CCN(CCO)CCCC(C)Nc1ccnc2cc(Cl)ccc12 (stereo not shown) [HCQ, Hydroxychloroquine] ? Its viability at 48 h, 0.2 μg/mL was 85.6%

###

In this section, each of the compounds is paired with its reported viability at 48 h, 10 μg/mL.
protocol-text: Cytotoxicity (MTT) assay of single and dual combinatory drugs
Type: cell-based
condition-set: human, HYDROXYCHLOROQUINE-FAVIPIRAVIR series; 10 μg/mL; read-out: Cell Viability (%)
# unit: % | format: bare number

So, CCN(CCO)CCCC(C)Nc1ccnc2cc(Cl)ccc12 (centres unmarked) [HCQ, Hydroxychloroquine] ? Its viability at 48 h, 10 μg/mL was 93.7

So, NC(=O)c1nc(F)c[nH]c1=O ? Its viability at 48 h, 10 μg/mL was 72.4
